recordedMetric: melting point

C=CCNc1cc(Oc2cc(Cl)c(Br)cc2Cl)c(Cl)cc1[N+](=O)[O-]    102 °C
CC(C)c1n[nH]c2c(O)nc(O)nc12    295 to 298 °C
O=C(CCN1CCC(N2Cc3ccccc3C2=O)CC1)c1ccccc1    87 to 90 °C
CNS(=O)(=O)c1cccnc1S(=O)(=O)NC(=O)Nc1nc(OC)cc(OC)n1    147 to 148 °C
O=S(=O)(O)c1cccc(NCc2ccc(Cl)c(Cl)c2)c1    > 275 °C

Briefly, melting point measured for Cc1sc(C(=O)O)cc1NC(=O)Cc1ccccc1 : 249 to 250 °C

Briefly, melting point measured for Cc1cccc(NC(=O)NCC(=O)N2[C@@H](C(=O)OC(C)(C)C)C[C@H](C(=O)O)[C@H]2c2ccccc2)c1 (racemic) : 160 °C

Briefly, melting point measured for CCCCC1(CCCC)CS(=O)(=O)c2ccc(N(C)C)cc2[C@@H](c2ccc(OCCCCC(=O)O)cc2)[C@H]1O : 76 to 79 °C

Briefly, melting point measured for CCN1CC(Cc2ccc(C(=O)O)cc2OC)c2cc(NC(=O)CC3CCCC3)ccc21 (centres undefined) : 183 to 186 °C

Hello, the source for this data is a melting point compilation (Tetko et al.; mined from patent text by program, amines drawn as free bases though some values may be those of a salt), in case you need it.
